Target: AChE in SH-SY5Y cells (Homo sapiens)
Sequence (P22303 32-614): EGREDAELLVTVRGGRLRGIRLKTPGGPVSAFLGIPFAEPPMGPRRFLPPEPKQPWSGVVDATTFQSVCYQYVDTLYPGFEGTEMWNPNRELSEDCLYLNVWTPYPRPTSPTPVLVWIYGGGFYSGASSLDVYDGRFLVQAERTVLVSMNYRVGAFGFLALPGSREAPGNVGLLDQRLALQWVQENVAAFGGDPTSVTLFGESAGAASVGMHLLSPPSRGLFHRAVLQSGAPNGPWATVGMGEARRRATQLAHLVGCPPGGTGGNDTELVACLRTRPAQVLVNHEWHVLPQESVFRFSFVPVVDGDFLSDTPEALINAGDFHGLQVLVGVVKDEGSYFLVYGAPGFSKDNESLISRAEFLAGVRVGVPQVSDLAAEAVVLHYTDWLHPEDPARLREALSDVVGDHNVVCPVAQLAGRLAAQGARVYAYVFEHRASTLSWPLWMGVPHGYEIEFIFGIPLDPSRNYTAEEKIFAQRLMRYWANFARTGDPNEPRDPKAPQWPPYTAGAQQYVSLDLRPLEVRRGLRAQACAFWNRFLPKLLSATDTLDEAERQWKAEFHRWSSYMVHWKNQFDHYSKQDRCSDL
Assay: cell-based
measured.metric: CC-v2 (curve classes)
# respond with the number and nothing more

Completed entries (count: 5):
Looking for the measured CC-v2 (curve classes) of `CCOP(=O)(Sc1ccccc1)Sc1ccccc1` , can you help?
-1.1

Looking for the measured CC-v2 (curve classes) of CCOP(=S)(OCC)SCSCC [Phorate] , can you help?
-2.1

Looking for the measured CC-v2 (curve classes) of `Cc1c(Cl)c(=O)oc2cc(OP(=O)(OCCCl)OCCCl)ccc12` , can you help?
-1.1

Looking for the measured CC-v2 (curve classes) of `CNC(=O)O/N=C(\SC)C(=O)N(C)C` , can you help?
-1.1

Looking for the measured CC-v2 (curve classes) of `CCCCN(CCCC)SN(C)C(=O)Oc1cccc2c1OC(C)(C)C2` , can you help?
-1.1

---
Looking for the measured CC-v2 (curve classes) of CCOP(=O)(OCC)Oc1nc(Cl)c(Cl)cc1Cl [Chlorpyrifos oxon, reference compound] , can you help?
-1.1

Looking for the measured CC-v2 (curve classes) of O=C(Nc1cccc(C2=NCCN2)c1)Nc1cccc(C2=NCCN2)c1 [Imidocarb dipropionate, reference compound] , can you help?
-1.1

Looking for the measured CC-v2 (curve classes) of `CCCN(CCc1cccs1)[C@H]1CCc2c(O)cccc2C1` , can you help?
-2.1

Looking for the measured CC-v2 (curve classes) of COP(N)(=O)SC (stereo not shown) , can you help?
-2.1

Looking for the measured CC-v2 (curve classes) of CCOC(=O)c1ccc(NC(=O)CN2CCCCC2)cc1 [Sulcaine, reference compound] , can you help?
-2.1
